Where do these numbers come from? They come from ChEMBL document CHEMBL1201862.

Tested on: EKVX
Assay: NCI tumour cell line growth inhibition, 48 h
Calls of active or inactive are those of the source. Rule as the data show it: active = GI50 up to about 1.1 µM and inactive = higher.
Outcomes: t = active, f = inactive

> print(dat)
                                    compound  label
 1                    N#Cc1ncn(-c2ccccc2)c1N      f
 2  CC(=O)OC1CCn2c1nc1c2C(=O)C=C(N2CC2)C1=O (stereo unspecified)      t
 3                     NC1=Nc2ncccc2C(=O)NN1      f
 4       N/C(=N\NC(=O)c1nc2ccccc2s1)c1ccccn1      f
 5  COc1cc2cc(C(=O)N3CC(CCl)c4ccc([N+](=O)[O-])cc43)[nH]c2c(OC)c1OC (stereo unspecified)      f
 6  CN(C(=O)[C@@H](NC(=O)OC(C)(C)C)c1ccccc1)[C@H]1CCCC[C@@H]1N1CCCC1      f
 7  COc1cc(C2SCC(=O)N2c2ccc(Cl)cc2)cc(OC)c1OC (stereo unspecified)      f
 8  COc1ccc(Nc2nc3cc(C(F)(F)F)ccc3nc2-c2ccccc2)cc1OC      f
 9     Cc1cccc(C(C)O)n1 (stereo unspecified)      f
10          c1ccc2c(c1)cc1ccc3cccc4ccc2c1c34      f
11  CCSc1nc(N2CCCC2)s[s+]1.[O-][Cl+3]([O-])([O-])[O-]      f

---

Test system: HOP-62
Test: NCI tumour cell line growth inhibition, 48 h
Calls of active or inactive are those of the source. No stated cut-off is given here; in the data, active = GI50 up to about 1.1 µM and inactive = higher. Starred links: 1 amine or outer side, 2 acyl side, 3 side chain; linkers in the order of their positions; H or OH if unused. Non-standard residues stand in square brackets, D forms with d. Residues, ends and D or L forms follow the SMILES beside them. ξ: configuration not given here. Ile(3ξ) = CCC(C)[C@H](N)C(=O)O; X35 = C=CCC(O[*:1])C(=O)[*:2]; NMeV = CN[C@H](C(=O)O)C(C)C; NMeA = CN[C@@H](C)C(=O)O; βAla = NCCC(=O)O
Outcomes: active, inactive

compound	label
c1ccc(Nc2nnc(-c3nsc4ccccc34)o2)cc1	inactive
CN1CCN(C2=C(Cl)C(=O)c3c(O)ccc(O)c3C2=O)CC1	inactive
Cc1nc2c(=S)[nH]ncc2[nH]1	inactive
N#CC1(N2CCCC2)CCC2(CC1)OCCO2	inactive
O=C(O)CC(NC(=O)C(F)(F)F)C(=O)NC1Cc2ccccc2OC1=O (centres undefined)	inactive
COc1ccc(C(Cc2ccccc2)C2NC(=S)NC2=O)cc1 (centres undefined)	inactive
CC(=O)OC12CC(C(F)(F)F)(C(F)(F)F)OC1(OC(C)=O)CC(C(F)(F)F)(C(F)(F)F)O2 (centres undefined)	inactive
COc1ccc(N2C(=O)CC(Cl)C2=O)cc1 (centres undefined)	inactive
COc1ccc(Nc2nc(NNC(=O)Cc3ccccc3)nc(NNC(=O)c3ccncc3)n2)cc1	inactive
Cn1c(-c2ccccc2)cc(-c2ccsc2)c1-c1ccsc1	inactive
Clc1nc(NC23CC4CC(CC(C4)C2)C3)nc(NC23CC4CC(CC(C4)C2)C3)n1	inactive
NC1=Nc2ncccc2C(=O)NN1	inactive
N#Cc1c(-c2cccc(Cl)c2)cc(-c2ccc(Cl)cc2)nc1N	inactive
CCCCC1Cc2cc(OC)ccc2-c2nc3cc(OC)ccc3n21.CCCCC1Cc2cc(OC)ccc2-c2nc3ccc(OC)cc3n21 (centres undefined)	inactive
CSc1cc(-c2ccccn2)nc(-c2ccccn2)c1	active
CC(C)NC(=O)OCc1c(COC(=O)NC(C)C)c(-c2cc[n+](COC(=O)C(C)(C)C)cc2)n2c1CCC2	inactive
O=c1c(Sc2c(O)c3ccccc3c3ccccc3c2=O)c(O)c2ccccc2c2ccccc12	inactive
CC(O)C1OC(O)C2OC(C)(C)OC12 (centres undefined)	inactive
COc1cc2c(cc1OC)C1Cc3cc(OC)c(OC)cc3C(C2)O1	inactive
Cc1cccc(C(C)O)n1 (centres undefined)	inactive
Nc1nc(Cl)c2ncn(CCCC(c3ccccc3)P(=O)(O)O)c2n1 (centres undefined)	inactive
CCc1ccc(Cc2ccc(CC)c(NC(=O)C(=O)Cc3nc4ccccc4nc3C)c2CC)c(CC)c1NC(=O)C(=O)Cc1nc2ccccc2nc1C	inactive
ClCCCN1CCCCC1CCl (centres undefined)	inactive
COc1cc2cc(C(=O)N3CC(CCl)c4ccc([N+](=O)[O-])cc43)[nH]c2c(OC)c1OC (centres undefined)	inactive
NC(CCCNCc1ccccc1)C(=O)O (centres undefined)	inactive
O=C(O)CCSC(CC1(c2ccc(Cl)cc2)NC(=O)CCS1)c1ccccc1 (centres undefined)	inactive
O=C(CCl)Nc1ccc(-c2nc3ccccc3s2)cc1	inactive
COc1cc(=O)n2c3ccccc3n(C)c2c1C#N	inactive
CCOC(=O)c1[nH]c2cccc3c2c1CC[C@H](NC(=O)C(F)(F)F)C3=O	inactive
Cn1nc(-c2ccccc2)c2c(-c3ccccc3)c3cc(Cl)ccc3nc21	inactive
COc1ccc(C2SCC(=O)N2NC(=O)C(C)Oc2ccccc2C)cc1 (centres undefined)	inactive
O=C1c2ccccc2C(=O)C1C(c1ccc(F)cc1)C1C(=O)c2ccccc2C1=O	inactive
C=CCC1OC(=O)CCNC(=O)[C@H](C)N(C)C(=O)[C@H](C(C)C)N(C)C(=O)[C@H](C(C)CC)NC(=O)[C@@H]2CCCN2C1=O (some centres undefined) (cyclo([Ile(3ξ)][NMeV][NMeA][βAla][X35]P))	inactive
COc1ccc2nc3cc(Cl)ccc3c(NCCNC(=O)Cn3c(=O)n(C)c(=O)c4c3nc3c(c(=O)n(C)c(=O)n3C)[n+]4[O-])c2c1	inactive
O[C@]12c3ccccc3C1CCCCC2N1CCOCC1 (some centres undefined)	inactive
Cn1c([N+](=O)[O-])cnc1CN1CCN(CCO)CC1	inactive
CCOC(=O)N/N=C(/N)Cc1ccc(Cl)cc1	inactive
Oc1c(CN2CCCC2)ccc2cccnc12	inactive
COC(=O)c1ccc2c(c1)CC1(C2)Cc2cc3c(cc2C1)CCC3	inactive
O=C1NC2OCC(O)C(O)C2O1 (centres undefined)	inactive
Cc1ccc(/C=N/Nc2cnccn2)s1	inactive
NCC(=O)NC1(c2cc3ccccc3s2)CCCCC1	inactive
Cc1cc(C)c(NC(=O)/C=C/c2ccccc2)c(C)c1	inactive
O=C(O)[C@@]1(Cc2ccc(O)cc2)C[C@@H]2Cc3ccccc3N2N1	inactive
